In this section, each of the compounds is paired with its reported Inhibition percent.
Biological target: MeCP2-TBL1 interaction (MeCP2-SmBiT / TBL1-LgBiT) (Mus musculus, UniProt Q9QXE7)
Construct: expressed in transfected cells; crude lysate used as a cell-free assay
Sequence (Q9QXE7 166-527): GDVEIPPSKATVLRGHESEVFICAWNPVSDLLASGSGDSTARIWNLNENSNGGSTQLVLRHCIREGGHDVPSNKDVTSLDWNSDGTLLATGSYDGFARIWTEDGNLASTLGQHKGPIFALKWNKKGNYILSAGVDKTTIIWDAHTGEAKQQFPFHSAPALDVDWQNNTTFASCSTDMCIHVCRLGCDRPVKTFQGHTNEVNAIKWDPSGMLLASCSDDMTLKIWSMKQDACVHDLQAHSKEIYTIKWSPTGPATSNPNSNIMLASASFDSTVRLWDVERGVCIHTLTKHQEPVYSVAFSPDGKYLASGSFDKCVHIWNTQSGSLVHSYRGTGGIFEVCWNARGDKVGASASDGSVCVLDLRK
Test: MeCP2-TBL1 NanoLuc luciferase complementation assay (cell-free, extracts of transfected HEK293 cells);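 note: each compound tested at 20 µM final concentration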
Assay type: binding, human
Conditions: primary screen of the Asinex library, sheet "Sargen output Asinex library", one well per compound, Batch Ref. 1
All answers are understood in %, so give the number only.

// below: answered compounds
[
  {
    "compound": "COc1cccc(Cc2cnc(C3CCCN(C(=O)Cn4ncc5ccccc5c4=O)C3)o2)c1 (stereo not shown)",
    "assayResult": -1.97
  },
  {
    "compound": "CC1(C)Oc2ccccc2[C@@H]2O[C@@H]3CCN(C(=O)c4cccc(Cn5ccnc5)c4)C[C@]3(CO)C[C@H]21",
    "assayResult": 6.91
  },
  {
    "compound": "CC(=O)N1CCCCC[C@@H]2[C@@H]1C[C@@H](Cc1ccccc1)N2C(=O)c1cccc(Cn2cncn2)c1",
    "assayResult": -0.42
  }
]

Query compound follows.
-- ask # input compound: NC(=O)c1cccc(-c2cccc(C3CN(C(=O)CCc4cccc(Cl)c4)CCO3)n2)c1 (stereo not shown) ; wanted: its Inhibition percent
-- reply 7.95

###

In this section, each of the compounds is paired with its reported Inhibition percent.
Target: MeCP2-TBL1 interaction (MeCP2-SmBiT / TBL1-LgBiT) (Mus musculus)
Construct: expressed in transfected cells; crude lysate used as a cell-free assay
Experiment: MeCP2-TBL1 NanoLuc luciferase complementation assay (cell-free, extracts of transfected HEK293 cells);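 note: each compound tested at 20 µM final concentration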
Type: binding, human
Details: primary screen of the Asinex library, sheet "Sargen output Asinex library", one well per compound, Batch Ref. 1
All answers are understood in %, so give the number only.

[
  {
    "compound": "Cc1cc(O)cc(=O)n1CCC(=O)N1CCCCC1C1CCN(C(=O)Cc2ccccc2F)CC1 (stereo not shown) [BDH_33629102]",
    "assayTarget": "MeCP2-TBL1 interaction (MeCP2-SmBiT / TBL1-LgBiT) (Mus musculus)",
    "assayResult": -1.24
  },
  {
    "compound": "CC(C)(O)[C@@H]1CC[C@](C)([C@H]2CC3(CCN(C(=O)c4ccc(-c5ccc(S(C)(=O)=O)cc5)cc4)CC3)CO2)O1 [BDH_33696510]",
    "assayTarget": "MeCP2-TBL1 interaction (MeCP2-SmBiT / TBL1-LgBiT) (Mus musculus)",
    "assayResult": 0.0118
  },
  {
    "compound": "Cc1cc(CCCC(=O)N2CCCC2c2cccc(Nc3nncs3)n2)ccc1F (stereo not shown) [BDE_26594959]",
    "assayTarget": "MeCP2-TBL1 interaction (MeCP2-SmBiT / TBL1-LgBiT) (Mus musculus)",
    "assayResult": 1.13
  },
  {
    "compound": "CC(=O)N[C@@]12CCN(CC(=O)Nc3cccc(F)c3)C[C@@H]1[C@@H](c1ccccc1)N(C(C)=O)C2 [BDH_33625995]",
    "assayTarget": "MeCP2-TBL1 interaction (MeCP2-SmBiT / TBL1-LgBiT) (Mus musculus)",
    "assayResult": -1.85
  },
  {
    "compound": "COc1ccccc1-c1ccc(CN2[C@@H](c3ccccc3)C[C@@H]3NC(=O)CCC[C@H]32)cc1 [BDG_23930473]",
    "assayTarget": "MeCP2-TBL1 interaction (MeCP2-SmBiT / TBL1-LgBiT) (Mus musculus)",
    "assayResult": 6.28
  },
  {
    "compound": "COc1ccccc1-c1ccc(CN2C[C@@H](c3cccc(NC(C)=O)c3)[C@@]3(CCCCC(=O)N3)C2)cc1 [BDD_23570835]",
    "assayTarget": "MeCP2-TBL1 interaction (MeCP2-SmBiT / TBL1-LgBiT) (Mus musculus)",
    "assayResult": 5.89
  }
]

-- ask # input compound: C[C@]12C[C@@H](Cc3ccccc3)N(C(=O)c3ccc(OCCN4CCCC4)cc3)[C@H]1CCCC(=O)N2 [BDH_33629575] ; wanted: its Inhibition percent
-- reply -1.81
